- Tested on: MDA-MB-231-ATCC
- assay_notes: NCI-60 one-dose screen, MDA-MB-231-ATCC
- Assay type: cell-based
- measurement_conditions: Homo sapiens, breast cancer, single dose 10 μM, read-out: Growth inhibition %

{"columns": ["smiles_repr", "inhibition at 10 µM"],
 "data": [
  ["O=C(Cc1ccccc1)NNC(=O)N1c2ccccc2C=Cc2ccccc21", "< 10%"],
  ["Brc1ccc(-c2nnc(N3c4ccccc4C=Cc4ccccc43)o2)cc1", "22.3%"],
  ["O=[N+]([O-])c1ccc(-c2nnc(N3c4ccccc4C=Cc4ccccc43)o2)cc1", "15.3%"],
  ["C1=Cc2ccccc2N(c2nnc(Cc3ccccc3)o2)c2ccccc21", "< 10%"],
  ["Clc1ccc(-c2nnc(N3c4ccccc4C=Cc4ccccc43)o2)cc1", "19.8%"],
  ["O=C(NNC(=O)N1c2ccccc2C=Cc2ccccc21)c1ccc(Br)cc1", "< 10%"],
  ["C1=Cc2ccccc2N(c2nnc(-c3ccccc3)o2)c2ccccc21", "< 10%"],
  ["O=C(NNC(=O)N1c2ccccc2C=Cc2ccccc21)c1ccccc1", "< 10%"],
  ["O=C(NNC(=O)N1c2ccccc2C=Cc2ccccc21)c1ccc([N+](=O)[O-])cc1", "< 10%"],
  ["Cc1ccc(-c2nnc(N3c4ccccc4C=Cc4ccccc43)o2)cc1", "9.21%"],
  ["O=C(NNC(=O)N1c2ccccc2C=Cc2ccccc21)c1ccc2ccccc2c1", "< 10%"],
  ["O=C(NNC(=O)N1c2ccccc2C=Cc2ccccc21)c1ccc(Cl)cc1", "< 10%"],
  ["C1=Cc2ccccc2N(c2nnc(-c3ccc4ccccc4c3)o2)c2ccccc21", "< 10%"],
  ["Cc1ccc(C(=O)NNC(=O)N2c3ccccc3C=Cc3ccccc32)cc1", "< 10%"]
]}

###

- Tested on: PC-3
- assay_notes: NCI-60 one-dose screen, PC-3
- Assay type: cell-based
- measurement_conditions: Homo sapiens; PC-3, prostate cancer; single dose 10 μM; read-out: Growth inhibition %
property_name: inhibition at 10 µM

{"columns": ["smiles_repr", "measured"],
 "data": [
  ["O=C(Cc1ccccc1)NNC(=O)N1c2ccccc2C=Cc2ccccc21", "< 10%"],
  ["O=C(NNC(=O)N1c2ccccc2C=Cc2ccccc21)c1ccc([N+](=O)[O-])cc1", "< 10%"],
  ["C1=Cc2ccccc2N(c2nnc(-c3ccccc3)o2)c2ccccc21", "< 10%"]
]}

###

Overview of recorded inhibition at 10 µM for various compounds
- Tested on: HCT-116
- assay_notes: NCI-60 one-dose screen, HCT-116
- Assay type: cell-based
- measurement_conditions: Homo sapiens; HCT-116, colon cancer; single dose 10 μM; read-out: Growth inhibition %
property_name: inhibition at 10 µM

{"columns": ["smiles_repr", "measured"],
 "data": [
  ["O=C(NNC(=O)N1c2ccccc2C=Cc2ccccc21)c1ccccc1", "< 10%"],
  ["Cc1ccc(C(=O)NNC(=O)N2c3ccccc3C=Cc3ccccc32)cc1", "< 10%"],
  ["O=C(NNC(=O)N1c2ccccc2C=Cc2ccccc21)c1ccc([N+](=O)[O-])cc1", "< 10%"],
  ["O=C(NNC(=O)N1c2ccccc2C=Cc2ccccc21)c1ccc2ccccc2c1", "< 10%"]
]}

###

Overview of recorded melting point for various molecules

{"columns": ["smiles_repr", "melting point"],
 "data": [
  ["O=C(NNC(=O)N1c2ccccc2C=Cc2ccccc21)c1ccc2ccccc2c1", "243 to 245 °C"],
  ["Cc1ccc(C(=O)NNC(=O)N2c3ccccc3C=Cc3ccccc32)cc1", "151 to 153 °C"],
  ["C1=Cc2ccccc2N(c2nnc(Cc3ccccc3)o2)c2ccccc21", "189 to 191 °C"],
  ["O=C(NNC(=O)N1c2ccccc2C=Cc2ccccc21)c1ccc(Br)cc1", "237 to 239 °C"],
  ["Cc1ccc(-c2nnc(N3c4ccccc4C=Cc4ccccc43)o2)cc1", "239 to 241 °C"],
  ["Clc1ccc(-c2nnc(N3c4ccccc4C=Cc4ccccc43)o2)cc1", "174 to 176 °C"]
]}

###

- Tested on: COLO 205
- assay_notes: NCI-60 one-dose screen, COLO 205
- Format: cell-based
- measurement_conditions: Homo sapiens; COLO 205, colon cancer; single dose 10 μM; read-out: Growth inhibition %
property_name: inhibition at 10 µM

{"columns": ["smiles_repr", "assayed_target", "property_name", "measured"],
 "data": [
  ["O=C(NNC(=O)N1c2ccccc2C=Cc2ccccc21)c1ccc([N+](=O)[O-])cc1", "COLO 205", "inhibition at 10 µM", "< 10%"],
  ["C1=Cc2ccccc2N(c2nnc(Cc3ccccc3)o2)c2ccccc21", "COLO 205", "inhibition at 10 µM", "< 10%"],
  ["O=C(Cc1ccccc1)NNC(=O)N1c2ccccc2C=Cc2ccccc21", "COLO 205", "inhibition at 10 µM", "< 10%"]
]}
